The measurements presented in this section are drawn from patent US10183940B2.

Please consider the recorded Ki for human SSTR1 (Homo sapiens (Human), UniProt P30872) in what follows.
quantity-name: Ki (µM)

• Cn1nc(C(C)(C)NC(=O)c2ccnc3c2OCCNC3)c2ccccc21 [Example 20] = 9.45
• Cn1nc(C(C)(C)NC(=O)c2nccc3c2OCCNC3)c2ccccc21 [Example 19] = 9.45
• Cn1nc(C(C)(C)NC(=O)c2cccc3c2OCCNC3)c2ccccc21 [Example 18] = 7.82

###

The following compounds are listed with their measured Ki values.
- target-entity: human SSTR2 (Homo sapiens (Human), UniProt P30874)
- Sequence (P30874 whole entry): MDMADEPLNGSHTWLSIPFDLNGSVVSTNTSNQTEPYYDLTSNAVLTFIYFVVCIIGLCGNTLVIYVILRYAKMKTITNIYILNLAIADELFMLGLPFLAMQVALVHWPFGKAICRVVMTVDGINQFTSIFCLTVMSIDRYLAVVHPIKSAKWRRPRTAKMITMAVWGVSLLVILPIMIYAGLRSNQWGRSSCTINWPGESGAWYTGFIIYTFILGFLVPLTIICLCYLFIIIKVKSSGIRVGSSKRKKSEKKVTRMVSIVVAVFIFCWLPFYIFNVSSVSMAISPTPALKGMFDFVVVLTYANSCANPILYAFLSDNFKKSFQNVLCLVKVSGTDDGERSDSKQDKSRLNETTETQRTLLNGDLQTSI
quantity-name: Ki

* Cc1cccn2c(C(C)(C)NC(=O)c3cccc4c3OCCNC4)ncc12 | 9.63 µM
* Cn1nc(C(C)(C)NC(=O)c2cccc3c2OCCNC3)c2cccc(F)c21 | 9.63 µM
* Cn1nc(C(C)(C)NC(=O)c2ccnc3c2OCCNC3)c2ccccc21 | 9.6 µM
* CC(C)(NC(=O)c1cccc2c1OCCNC2)c1ccnc2ccccc12 | 9.63 µM
* Cc1cccc2c(C(C)(C)NC(=O)c3cncc4c3OCCNC4)nn(C)c12 | 9.6 µM

###

- target-entity: human Somatostatin 4 receptor (SSTR4) (Homo sapiens (Human), UniProt P31391)
- Sequence (P31391 whole entry): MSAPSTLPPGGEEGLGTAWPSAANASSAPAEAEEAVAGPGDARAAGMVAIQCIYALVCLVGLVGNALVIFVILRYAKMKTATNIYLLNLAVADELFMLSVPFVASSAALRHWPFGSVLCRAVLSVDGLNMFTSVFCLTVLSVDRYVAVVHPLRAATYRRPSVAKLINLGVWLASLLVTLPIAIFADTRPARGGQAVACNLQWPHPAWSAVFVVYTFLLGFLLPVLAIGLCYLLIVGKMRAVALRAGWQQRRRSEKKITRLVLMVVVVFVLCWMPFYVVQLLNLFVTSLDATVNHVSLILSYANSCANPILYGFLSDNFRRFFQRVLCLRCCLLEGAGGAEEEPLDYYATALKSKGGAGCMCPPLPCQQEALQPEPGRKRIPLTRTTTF
- assay-text: cAMP assay with human Somatostatin 4 receptor
- Format: cell-based
- test-conditions: hSSTR4 expressing H4 cells, inhibition of Forskolin-stimulated cAMP; read-out: SSTR4 agonism EC50
pEC50: −log10 of the molar value.
The following compounds are listed with their measured pEC50 values.
quantity-name: pEC50

* Cc1cc(F)cn2c(C(C)(C)NC(=O)c3cccc4c3OCCNC4)ncc12 [Example 52] | 8.06
* Cc1cccc2c(C(C)(C)NC(=O)c3cccc4c3OCCNC4)n[nH]c12 [Example 33] | 9.10
* Cn1nc(C(C)(C)NC(=O)c2cccc3c2OCCNC3)c2cccc(F)c21 [Example 39] | 8.68
* CC(C)(NC(=O)c1cccc2c1OCCNC2)c1ncc2c(Cl)cccn12 [Example 48] | 8.77
* Cc1nc2ccccn2c1C(C)(C)NC(=O)c1cccc2c1OCCNC2 [Example 69] | 7.75
* CC(NC(=O)c1cccc2c1OCCNC2)c1nc2ccccc2[nH]1 (stereo not shown) [Example 2] | 6.52
* Cc1cccn2c(C(C)(NC(=O)c3cccc4c3OCCNC4)C3CC3)ncc12 (stereo not shown) [Example 55] | 6.87
* Cc1cccn2c(C3(NC(=O)c4cccc5c4OCCNC5)CCOC3)ncc12 (stereo not shown) [Example 57] | 6.45
* Cn1nc(C(C)(C)NC(=O)c2nccc3c2OCCNC3)c2ccccc21 [Example 19] | 7.84
* CC(C)(NC(=O)c1cccc2c1OCCNC2)c1cccc2ccccc12 [Example 7] | 8.85
* Cc1cccn2c(C(C)(C)NC(=O)c3cccc4c3OCCNC4)nc(C)c12.Cl [Example 53] | 8.80
* CC(C)(NC(=O)c1cccc2c1OCCNC2)c1ncnc2ccccc12 [Example 46] | 8.04
* CC(C)(NC(=O)c1cccc2c1OCCNC2)c1cccc2cnccc12 [Example 11] | 6.37
* Cc1ncc(C(C)(C)NC(=O)c2cccc3c2OCCNC3)c2ccccc12 [Example 27] | 9.22
* CC(C)(NC(=O)c1cccc2c1OCCNC2)c1ncnc2c(F)cccc12 [Example 66] | 7.52
* CC(C)(NC(=O)c1cccc2c1OCCNC2)c1ncc2ccccn12.Cl [Example 13] | 7.84
* Cn1nc(C(C)(C)NC(=O)c2cncc3c2OCCNC3)c2ccccc21 [Example 21] | 7.45
* Cn1nc(C(C)(C)NC(=O)c2cccc3c2OCCNC3)c2c(F)cccc21 [Example 22] | 8.10
* CC(C)(NC(=O)c1cccc2c1OCCNC2)c1noc2c(F)cccc12 [Example 34] | 7.74

###

The following compounds are listed with their measured EC50 values.
- target-entity: human Somatostatin 4 receptor (SSTR4) (Homo sapiens (Human), UniProt P31391)
- assay-text: cAMP assay with human Somatostatin 4 receptor
- test-conditions: hSSTR4 expressing H4 cells, inhibition of Forskolin-stimulated cAMP; read-out: SSTR4 agonism EC50
quantity-name: EC50 (µM)

• Cc1cccn2c(C3(NC(=O)c4nccc5c4OCCNC5)CC3)ncc12 = 0.0393
• CC(C)(NC(=O)c1cccc2c1OCCNC2)c1n[nH]c2c(Cl)cccc12 = 0.0013
• Cn1nc(C(C)(C)NC(=O)c2ccnc3c2OCCNC3)c2ccccc21 = 0.0175

###

- target-entity: human Somatostatin 4 receptor (SSTR4) (Homo sapiens (Human), UniProt P31391)
- assay-text: cAMP assay with human Somatostatin 4 receptor
- test-conditions: hSSTR4 expressing H4 cells, inhibition of Forskolin-stimulated cAMP; read-out: SSTR4 agonism EC50
pEC50: −log10 of the molar value.
The following compounds are listed with their measured pEC50 values.
quantity-name: pEC50

- Cc1nc(C(C)(C)NC(=O)c2cccc3c2OCCNC3)c2cccc(F)c2n1: 7.12
- CC(C)(NC(=O)c1cccc2c1OCCNC2)c1cccc2ncccc12: 7.01
- Cc1cccc2c(C(C)(C)NC(=O)c3cccc4c3OCCNC4)noc12: 8.55
- Cc1cccc2c(C(C)(C)NC(=O)c3cncc4c3OCCNC4)nn(C)c12: 7.80
- CC(C)(NC(=O)c1cccc2c1OCCNC2)c1nc(C2CC2)c2c(F)cccn12: 8.20
- Cc1cccnc1OCC(C)(C)NC(=O)c1cccc2c1OCCNC2: 7.55
- Cc1cc2ccccc2c(C(C)(C)NC(=O)c2nccc3c2OCCNC3)n1: 7.70
- Cc1cccn2c(C(C)(C)NC(=O)c3cccc4c3OCCNC4)cnc12: 7.95
- Cc1cc2ccccc2c(C(C)(C)NC(=O)c2cncc3c2OCCNC3)n1: 7.43
- CC(C)(NC(=O)c1cccc2c1OCCNC2)c1ccnc2ccccc12: 8.08

###

- assay-text: Metabolic stability in human liver microsomes
- Format: in vitro ADME
- test-conditions: pH 7.6; pooled human liver microsomes, 37° C., 1 μM test compound, NADPH; read-out: Half-life t1/2
The following compounds are listed with their measured half-life at 1 μM values.
quantity-name: half-life at 1 μM

• CC(C)(NC(=O)c1cccc2c1OCCNC2)c1ncc2ccccn12.Cl [Example 13] = > 2.17 h
• Cc1nc(C(C)(C)NC(=O)c2cccc3c2OCCNC3)c2ccccc2n1 [Example 64] = > 2.17 h
• Cc1cccn2c(C(C)(C)NC(=O)c3cncc4c3OCCNC4)ncc12 [Example 79] = > 2.17 h
• Cc1cccc2c(C(C)(C)NC(=O)c3cncc4c3OCCNC4)nn(C)c12 [Example 42] = > 2.17 h
• Cc1cccc2c(C(C)(C)NC(=O)c3ccnc4c3OCCNC4)nn(C)c12 [Example 41] = > 2.17 h
• Cc1ncc(C(C)(C)NC(=O)c2cccc3c2OCCNC3)c2ccccc12 [Example 27] = > 2.17 h
• Cn1nc(C(C)(C)NC(=O)c2ccnc3c2OCCNC3)c2ccccc21 [Example 20] = > 2.17 h
• Cc1cccn2c(C(C)(C)NC(=O)c3cccc4c3OCCNC4)ncc12 [Example 47] = > 2.17 h
• Cc1cccn2c(C(C)(C)NC(=O)c3ccnc4c3OCCNC4)ncc12 [Example 78] = > 2.17 h
• Cc1nnc(C(C)(C)NC(=O)c2cccc3c2OCCNC3)c2ccccc12 [Example 26] = > 2.17 h
• CC(C)(NC(=O)c1cccc2c1OCCNC2)c1ncnc2ccccc12 [Example 46] = > 2.17 h
• CC(C)(NC(=O)c1cccc2c1OCCNC2)c1n[nH]c2c(Cl)cccc12 [Example 44] = > 2.17 h
• Cc1cccn2c(C(C)(C)NC(=O)c3nccc4c3OCCNC4)nc(C)c12 [Example 75] = > 2.17 h
